B1: CPEB3 Ribozyme (parent)
chain: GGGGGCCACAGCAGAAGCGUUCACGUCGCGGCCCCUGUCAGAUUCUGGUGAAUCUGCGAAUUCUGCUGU

# Variants of: B1
# assay info: self-cleavage, relative activity (ratio to wild type); higher = more cleavage; co-transcriptional
readout name: self-cleavage
# respond with the number and nothing more

Need self-cleavage, item A59C U69A
0.813

Next: C33U U69G
1.06

Next: U44C C54A
0.627

Next: U26A G28A
0.216

Next: U26A C66A
0.637

Next: G11A U61G
0.392

Next: A40U G47C
0.88
